Values compiled from paper PMC8234359.

Assay: Immersion of two-cell stage zebrafish embryos (10 µM), spatiotemporal fluorescence imaging and non-compartmental AUC
Type: in vivo, zebrafish (Danio rerio)
Settings: yolk, immersion 10 µM, 0.25 to 72 h
Test readout: AUC-Yolk IMM (AUC0.25–72h) (RFU × 10^7)

Worked examples, 2 molecules total:
C#CCNC(=O)CCCCCN1C(=CC=CC2=[N+](C)c3ccc(S(=O)(=O)[O-])cc3C2(C)C)C(C)(C)c2cc(S(=O)(=O)[O-])ccc21.[K+] = 1.89
C#CCNC(=O)CCCCCN1C(=CC=CC2=[N+](C)c3ccccc3C2(C)C)C(C)(C)c2ccccc21.[Cl-] = 14.6

P = C#CCNC(=O)CCCCC[N+]1=C(C=CC=CC=C2N(C)c3ccc4c(S(=O)(=O)[O-])cc(S(=O)(=O)[O-])cc4c3C2(C)C)C(C)(C)c2c1ccc1c(S(=O)(=O)[O-])cc(S(=O)(=O)[O-])cc21.[K+].[K+].[K+]
Q = C#CCNC(=O)c1ccc2c(c1)C(=O)OC21c2ccc(O)cc2Oc2cc(O)ccc21 [FAMA, Fam A, 5-Isomer]
// query Two entries are listed, P and Q . Which one carries the higher AUC-Yolk IMM (AUC0.25–72h)? Returns: label corresponding to the selected item.
// result Q
